Quick reference: plasma protein binding (% Bound) of the listed items.
- ASSAY METHOD TEXT: Plasma protein binding, mouse
- Format: in vitro ADME
- CONDITION DESCRIPTION: 1µM
REPORTED PROPERTY: plasma protein binding (% Bound)

{"MOLECULE": "Cc1ccc(S(=O)(=O)NCc2ccc(C(=O)NCCN(Cc3ccccc3)C(C)C)cc2)cc1 [3{1}]", "REPORTED PROPERTY": "plasma protein binding (% Bound)", "RECORDED MEASUREMENT": "98.90 % Bound"}
{"MOLECULE": "Clc1ccc(CSc2nnc(-c3ccccn3)n2Cc2ccco2)cc1Cl [2{8}]", "REPORTED PROPERTY": "plasma protein binding (% Bound)", "RECORDED MEASUREMENT": "99.80 % Bound"}
{"MOLECULE": "COc1ccc(N2CCN(CCCNC(=O)Cn3c(=O)c4cccn4c4c(C)ccnc43)CC2)cc1 [4{13}]", "REPORTED PROPERTY": "plasma protein binding (% Bound)", "RECORDED MEASUREMENT": "88.46 % Bound"}
{"MOLECULE": "O=C(c1ccccn1)N(Cc1cccs1)C1(C(=O)NC2CCCCC2)CCCCC1 [1{1}]", "REPORTED PROPERTY": "plasma protein binding (% Bound)", "RECORDED MEASUREMENT": "94.05 % Bound"}

---

- ASSAY METHOD TEXT: Plasma protein binding, human
- Type: in vitro ADME
- CONDITION DESCRIPTION: human, 10µM
REPORTED PROPERTY: plasma protein binding (% Bound)

{"SMILES STRUCTURE": "COc1ccc(N2CCN(CCCNC(=O)Cn3c(=O)c4cccn4c4c(C)ccnc43)CC2)cc1", "RECORDED MEASUREMENT": "88.54 % Bound"}
{"SMILES STRUCTURE": "Cc1ccc(S(=O)(=O)NCc2ccc(C(=O)NCCN(Cc3ccccc3)C(C)C)cc2)cc1", "RECORDED MEASUREMENT": "99.73 % Bound"}
{"SMILES STRUCTURE": "Clc1ccc(CSc2nnc(-c3ccccn3)n2Cc2ccco2)cc1Cl", "RECORDED MEASUREMENT": "99.80 % Bound"}
{"SMILES STRUCTURE": "O=C(c1ccccn1)N(Cc1cccs1)C1(C(=O)NC2CCCCC2)CCCCC1", "RECORDED MEASUREMENT": "99.07 % Bound"}

---

- ASSAY METHOD TEXT: Plasma protein binding, mouse
- Format: in vitro ADME
- CONDITION DESCRIPTION: 10µM
Quick reference: plasma protein binding (% Bound) of the listed items.
REPORTED PROPERTY: plasma protein binding (% Bound)

{"SMILES STRUCTURE": "Cc1ccc(S(=O)(=O)NCc2ccc(C(=O)NCCN(Cc3ccccc3)C(C)C)cc2)cc1", "RECORDED MEASUREMENT": 98.92}
{"SMILES STRUCTURE": "Clc1ccc(CSc2nnc(-c3ccccn3)n2Cc2ccco2)cc1Cl", "RECORDED MEASUREMENT": 99.64}
{"SMILES STRUCTURE": "COc1ccc(N2CCN(CCCNC(=O)Cn3c(=O)c4cccn4c4c(C)ccnc43)CC2)cc1", "RECORDED MEASUREMENT": 80.07}
{"SMILES STRUCTURE": "O=C(c1ccccn1)N(Cc1cccs1)C1(C(=O)NC2CCCCC2)CCCCC1", "RECORDED MEASUREMENT": 90.70}
